tested on: D341; conditions: read-out: Inhibition of H^3 Thymidine uptake (IC50 in nM); D341 cells, 96 hours incubation
MEASURED_ENDPOINT: IC50 (nM)
Write the answer as a number in nM, unit excluded.

Look over these answered cases.
CO[C@H]1C[C@@H]2CC[C@@H](C)[C@@](O)(O2)C(=O)C(=O)N2CCCC[C@H]2C(=O)O[C@H]([C@H](C)C[C@@H]2CC[C@@H](OC(=O)N[C@H](CO)[C@@H](C)O)[C@H](OC)C2)CC(=O)[C@H](C)/C=C(\C)[C@@H](O)[C@@H](OC)C(=O)[C@H](C)C[C@H](C)/C=C/C=C/C=C/1C | 5.5
CO[C@H]1C[C@@H]2CC[C@@H](C)[C@@](O)(O2)C(=O)C(=O)N2CCCC[C@H]2C(=O)O[C@H]([C@H](C)C[C@@H]2CC[C@@H](OC(=O)NCC(O)CO)[C@H](OC)C2)CC(=O)[C@H](C)/C=C(\C)[C@@H](O)[C@@H](OC)C(=O)[C@H](C)C[C@H](C)/C=C/C=C/C=C/1C (stereo partly drawn) | 14.7

Let us examine a further case.
Looking up `CO[C@H]1C[C@@H]2CC[C@@H](C)[C@@](O)(O2)C(=O)C(=O)N2CCCC[C@H]2C(=O)O[C@H]([C@H](C)C[C@@H]2CC[C@@H](OC(=O)NC(CO)(CO)CO)[C@H](OC)C2)CC(=O)[C@H](C)/C=C(\C)[C@@H](O)[C@@H](OC)C(=O)[C@H](C)C[C@H](C)/C=C/C=C/C=C/1C` , I see its IC50 listed as 20.8
